Catalogue of IC50 readings, one per entry.
Molecular target: DNA dC->dU-editing enzyme APOBEC-3A (Homo sapiens)
Sequence (P31941 whole entry): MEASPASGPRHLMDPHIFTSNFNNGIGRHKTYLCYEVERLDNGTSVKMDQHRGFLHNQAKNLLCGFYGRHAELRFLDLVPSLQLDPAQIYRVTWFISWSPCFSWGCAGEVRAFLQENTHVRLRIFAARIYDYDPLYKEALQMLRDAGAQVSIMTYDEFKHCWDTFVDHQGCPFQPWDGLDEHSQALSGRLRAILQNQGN
Assay: A3A deaminase inhibition for selectivity – biochemical, dose response (AID 504722)
Settings: 25 °C

Consider the reported IC50 for these molecules:
1. OCC12C=CC(O1)c1c2c(O)n(-c2ccccc2-c2ccccc2)c1O (stereo not drawn)	> 100 µM
2. COc1ccc(-n2c(O)cc(Sc3nnc(-c4ccccc4)[nH]3)c2O)cc1	> 100 µM

Field request: IC50 | item: CCOc1ccc(-n2c(O)cc(Sc3nnc(-c4ccccc4)[nH]3)c2O)cc1 [MLS000765380]
> 100 µM
